target.under.test: UniProt P07237
Sequence (P07237 18-508): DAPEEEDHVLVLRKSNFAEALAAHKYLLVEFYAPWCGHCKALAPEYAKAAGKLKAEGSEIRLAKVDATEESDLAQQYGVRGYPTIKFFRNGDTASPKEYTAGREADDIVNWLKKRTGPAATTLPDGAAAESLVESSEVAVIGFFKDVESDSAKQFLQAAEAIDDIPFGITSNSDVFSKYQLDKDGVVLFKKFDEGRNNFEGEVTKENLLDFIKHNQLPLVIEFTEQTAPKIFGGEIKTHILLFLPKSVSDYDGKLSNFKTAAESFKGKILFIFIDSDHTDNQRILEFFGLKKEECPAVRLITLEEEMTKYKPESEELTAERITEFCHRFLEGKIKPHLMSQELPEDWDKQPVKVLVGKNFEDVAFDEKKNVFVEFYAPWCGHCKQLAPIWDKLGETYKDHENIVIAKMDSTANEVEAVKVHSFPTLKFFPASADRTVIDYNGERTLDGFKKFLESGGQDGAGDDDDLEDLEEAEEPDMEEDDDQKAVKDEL
test: Insulin turbidimetric assay of PDI reductase activity
Format: biochemical
protocol.conditions: Table B; read-out: PDI_ Inhibition_ IC50
pIC50: −log10 of the molar value.

>  <line.notation>
CCN(C)C(=O)C1(CCOc2ccccc2)CCN(Cc2ccc(O)c(Cl)c2)CC1

>  <relation.symbol>
=

>  <pIC50>
5.52

$$$$
>  <line.notation>
CCOC(=O)C1(CCOc2ccccc2)CCN(Cc2ccc(O)c(Cl)c2)CC1

>  <relation.symbol>
=

>  <pIC50>
6.60

$$$$
>  <line.notation>
CCOC(=O)C1(CCOc2ccccc2)CCN(Cc2ccc(O)cc2)CC1

>  <relation.symbol>
=

>  <pIC50>
4.82

$$$$
>  <line.notation>
CCOC(=O)C1(CCOc2ccccc2)CCN(Cc2ccc(OC)c(Cl)c2)CC1

>  <relation.symbol>
<

>  <pIC50>
4.52

$$$$
>  <line.notation>
CC(C)(C)OC(=O)C1(CCOc2ccccc2)CCN(Cc2ccc(O)c(Cl)c2)CC1

>  <relation.symbol>
=

>  <pIC50>
6.19

$$$$
